# methodNotes: Antiproliferative activity against human VCaP cells assessed as reduction in cell viability after 96 hrs by propidium iodide staining based fluorescence assay
# Assay type: functional
# testSettings: Homo sapiens, VCaP, 96 h; read-out: IC50
measuredEndpoint: IC50 (µM)
Numbers only, in µM.

Parameter requested: IC50. Apply to each item below.
1. CC1(C)C(=O)N(c2ccc([N+](=O)[O-])cc2C(F)(F)F)C(=S)N1c1cc(C(F)(F)F)cc(C(F)(F)F)c1
2. CC(O)(CSc1cc(C(F)(F)F)cc(C(F)(F)F)c1)C(=O)Nc1ccc(C#N)cc1C(F)(F)F (stereo not drawn)
3. CC(O)(COc1cc(C(F)(F)F)cc(C(F)(F)F)c1)C(=O)Nc1ccc([N+](=O)[O-])c(C(F)(F)F)c1 (stereo not drawn)
4. CC(O)(COc1cc(C(C)(C)C)cc(C(C)(C)C)c1)C(=O)Nc1ccc(C#N)c(C(F)(F)F)c1 (stereo not drawn)

Marked response:
18.6
6.65
1.66
2.98

Please state IC50 for every compound in the list that follows.
1. CC(O)(COc1cc(C(F)(F)F)cc(C(F)(F)F)c1)C(=O)Nc1ccc(C#N)cc1C(F)(F)F (stereo not drawn)
2. CC(O)(CS(=O)(=O)c1cccc(C(F)(F)F)c1)C(=O)Nc1cc(C(F)(F)F)cc(C(F)(F)F)c1 (stereo not drawn)
3. CC1(C)C(=O)N(c2ccc([N+](=O)[O-])c(C(F)(F)F)c2)C(=S)N1c1cc(C(F)(F)F)cc(C(F)(F)F)c1
4. CC(O)(CSc1cccc(C(F)(F)F)c1)C(=O)Nc1cc(C(F)(F)F)cc(C(F)(F)F)c1 (stereo not drawn)

Marked response:
[4.77, 9.98, 28.4, 9.86]

Hey, just so you know, these numbers are from ChEMBL document CHEMBL3826911.
